protein stability index: recorded values
B1: ZNF449 (parent)
chain: RIHSGEEPHKCPECGKRFLRSSDL

Variants of: B1
Protocol text: protein stability index of a GFP-peptide fusion (GPS, HEK-293T) (PSI 1-6); higher = more stable;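 further: lentivirally expressed fusions sorted by FACS into six bins by GFP to DsRed ratio, PSI derived from sequencing read proportions per bin multiplied by bin number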
Test settings: c terminus: a fixed tail appended
// no unit, no text: just the number

sequence_variant=G15A measured_metric="protein stability index" assay_value=3.9
sequence_variant=F18W measured_metric="protein stability index" assay_value=3.5
sequence_variant=E6W measured_metric="protein stability index" assay_value=2.08

Entry E13K — recorded protein stability index = 2.72
